Target: UniProt:Q96L34
Sequence (Q96L34 1-752): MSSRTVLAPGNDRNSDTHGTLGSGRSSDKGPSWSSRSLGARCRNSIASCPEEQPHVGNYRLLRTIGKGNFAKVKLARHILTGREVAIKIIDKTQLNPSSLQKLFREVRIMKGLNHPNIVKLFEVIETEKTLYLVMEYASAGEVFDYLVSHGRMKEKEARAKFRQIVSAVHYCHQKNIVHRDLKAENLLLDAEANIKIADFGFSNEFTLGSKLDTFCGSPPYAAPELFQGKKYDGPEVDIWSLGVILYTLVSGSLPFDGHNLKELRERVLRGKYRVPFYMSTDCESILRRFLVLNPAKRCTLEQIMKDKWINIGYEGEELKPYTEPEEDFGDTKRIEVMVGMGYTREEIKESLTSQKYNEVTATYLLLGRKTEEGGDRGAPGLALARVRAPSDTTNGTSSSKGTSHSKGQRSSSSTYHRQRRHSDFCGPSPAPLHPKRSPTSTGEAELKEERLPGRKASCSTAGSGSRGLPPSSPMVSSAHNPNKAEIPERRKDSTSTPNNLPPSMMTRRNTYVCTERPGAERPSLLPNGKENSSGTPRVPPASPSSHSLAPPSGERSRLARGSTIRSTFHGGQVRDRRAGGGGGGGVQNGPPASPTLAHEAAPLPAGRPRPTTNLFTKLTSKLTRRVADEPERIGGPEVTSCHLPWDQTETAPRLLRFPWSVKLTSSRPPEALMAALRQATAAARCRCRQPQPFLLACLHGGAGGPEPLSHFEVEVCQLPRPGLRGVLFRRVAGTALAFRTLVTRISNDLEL
Reported IC50 values are given for each entry in this list.

Compound | Tested System | IC50
Cc1ncc([N+](=O)[O-])n1C(=NO)c1ccc(Cl)cc1 [Compound 4f] | UniProt:Q96L34 | > 20 µM

IN: For the compound shown here, CCc1ccc(C(=NO)n2c([N+](=O)[O-])cnc2C)cc1 [Compound 4e] , give the reported IC50.
OUT: 18.5 µM

IN: For the compound shown here, COc1ccc(C(=NO)n2c([N+](=O)[O-])cnc2C)cc1 [Compound 4b] , give the reported IC50.
OUT: > 20 µM

----------
tested on: MCF-7 cells; assay: MTT cell viability assay; type: cell-based; settings: Homo sapiens, MCF7, 48 h, read-out: MCF-7 IC50
pIC50: −log10 of the molar value.
Property Name: pIC50

Sample Smiles | Property Name | Test Result
Cc1ncc([N+](=O)[O-])n1C(=NO)c1ccc(Cl)cc1 | pIC50 | 4.54
Cc1ncc([N+](=O)[O-])n1C(=NO)c1ccc([N+](=O)[O-])cc1 | pIC50 | 4.65
Cc1ccc(C(=NO)n2c([N+](=O)[O-])cnc2C)cc1 | pIC50 | 4.49

----------
test system: MCF-7 cells; experiment: MTT cell viability assay; format: cell-based; settings: Homo sapiens, MCF7, 48 h, read-out: MCF-7 IC50
pIC50: −log10 of the molar value.
Property Name: pIC50

Compound | Tested System | pIC50
CCOc1ccc(C(=NO)n2c([N+](=O)[O-])cnc2C)cc1 [Compound 4d] | MCF-7 cells | 4.48
Cc1ncc([N+](=O)[O-])n1C(=NO)c1ccccc1C(F)(F)F [Compound 4h] | MCF-7 cells | 5.43
COc1ccc(C(=NO)n2c([N+](=O)[O-])cnc2C)cc1 [Compound 4b] | MCF-7 cells | 4.46

1 = CCc1ccc(C(=NO)n2c([N+](=O)[O-])cnc2C)cc1 [Compound 4e]
2 = Cc1ncc([N+](=O)[O-])n1C(=NO)c1ccccc1 [Compound 4a]
IN: Could you kindly indicate whether 1 or 2 has the higher pIC50 value? Identify your pick by its label.
OUT: 1
(1: 4.63, 2: 4.43)
